The reported measurements were obtained from patent US20210024639A1.

Kindly supply the reported cell scattering score, HPAF-II, 3.000 nM values for the records listed here.
MEASUREMENT TARGET: native human MET on living human cells (human, UniProt P08581 25-1390)
Sequence (P08581 25-1390): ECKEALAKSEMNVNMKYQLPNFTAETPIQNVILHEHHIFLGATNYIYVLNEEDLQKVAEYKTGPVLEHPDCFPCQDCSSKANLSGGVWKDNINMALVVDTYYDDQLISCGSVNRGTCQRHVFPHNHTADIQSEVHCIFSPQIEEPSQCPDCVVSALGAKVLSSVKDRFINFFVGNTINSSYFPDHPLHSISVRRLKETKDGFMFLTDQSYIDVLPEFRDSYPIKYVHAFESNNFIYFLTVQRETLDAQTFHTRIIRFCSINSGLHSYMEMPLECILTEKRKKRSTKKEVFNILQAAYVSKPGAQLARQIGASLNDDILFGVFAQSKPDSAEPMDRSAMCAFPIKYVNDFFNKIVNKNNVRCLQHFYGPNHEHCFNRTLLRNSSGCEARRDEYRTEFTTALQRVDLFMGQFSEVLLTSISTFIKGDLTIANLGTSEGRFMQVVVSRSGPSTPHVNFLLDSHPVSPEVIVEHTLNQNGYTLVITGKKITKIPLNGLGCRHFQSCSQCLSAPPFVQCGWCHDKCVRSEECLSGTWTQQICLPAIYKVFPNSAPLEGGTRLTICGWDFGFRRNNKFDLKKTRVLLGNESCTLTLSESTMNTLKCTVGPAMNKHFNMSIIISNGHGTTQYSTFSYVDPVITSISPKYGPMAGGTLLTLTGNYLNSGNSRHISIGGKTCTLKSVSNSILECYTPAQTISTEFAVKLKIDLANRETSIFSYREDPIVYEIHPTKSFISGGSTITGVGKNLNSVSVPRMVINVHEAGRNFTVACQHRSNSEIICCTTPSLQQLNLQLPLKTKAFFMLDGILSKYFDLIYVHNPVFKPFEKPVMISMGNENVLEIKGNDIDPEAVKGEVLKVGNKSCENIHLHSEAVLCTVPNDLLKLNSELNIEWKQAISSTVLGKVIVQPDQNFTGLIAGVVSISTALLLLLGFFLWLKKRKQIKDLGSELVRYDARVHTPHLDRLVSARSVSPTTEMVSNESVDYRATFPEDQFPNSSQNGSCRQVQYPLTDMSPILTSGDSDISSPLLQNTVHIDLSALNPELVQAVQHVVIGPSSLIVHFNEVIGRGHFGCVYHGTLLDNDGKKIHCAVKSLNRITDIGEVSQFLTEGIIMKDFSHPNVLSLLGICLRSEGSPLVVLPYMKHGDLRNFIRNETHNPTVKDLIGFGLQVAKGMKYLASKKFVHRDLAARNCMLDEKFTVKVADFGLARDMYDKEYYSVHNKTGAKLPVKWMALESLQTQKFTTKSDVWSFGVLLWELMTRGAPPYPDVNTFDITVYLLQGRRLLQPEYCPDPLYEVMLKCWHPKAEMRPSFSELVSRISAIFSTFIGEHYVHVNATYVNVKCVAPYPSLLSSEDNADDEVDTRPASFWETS
PROTOCOL DESCRIPTION: cell-based or functional assay
Please give a number only; it is taken to be in score 0-4.

Query: Fill blank: measured cell scattering score, HPAF-II, 3.000 nM of the binder chimeric llama-human IgG1 mAb 71C3 (antibody, V domains shown) VH: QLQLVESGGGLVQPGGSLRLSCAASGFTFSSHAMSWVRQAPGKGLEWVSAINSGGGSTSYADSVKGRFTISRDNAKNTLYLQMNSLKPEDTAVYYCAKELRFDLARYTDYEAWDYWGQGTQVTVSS VL: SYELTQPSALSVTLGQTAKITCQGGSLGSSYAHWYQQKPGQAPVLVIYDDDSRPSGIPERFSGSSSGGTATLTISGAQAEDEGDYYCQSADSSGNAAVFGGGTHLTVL is ____.
Result: 4

Query: Fill blank: measured cell scattering score, HPAF-II, 3.000 nM of the binder chimeric llama-human IgG1 mAb 71D6 (antibody, V domains shown) VH: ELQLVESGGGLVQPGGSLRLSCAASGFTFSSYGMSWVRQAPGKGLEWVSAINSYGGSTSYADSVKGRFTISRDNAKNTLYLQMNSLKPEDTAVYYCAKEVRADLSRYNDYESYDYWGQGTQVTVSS VL: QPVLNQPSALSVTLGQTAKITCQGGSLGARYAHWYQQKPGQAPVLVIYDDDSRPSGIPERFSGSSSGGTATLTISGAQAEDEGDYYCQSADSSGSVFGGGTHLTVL is ____.
Result: 4

Query: Fill blank: measured cell scattering score, HPAF-II, 3.000 nM of the binder chimeric llama-human IgG1 mAb 71G3 (antibody, V domains shown) VH: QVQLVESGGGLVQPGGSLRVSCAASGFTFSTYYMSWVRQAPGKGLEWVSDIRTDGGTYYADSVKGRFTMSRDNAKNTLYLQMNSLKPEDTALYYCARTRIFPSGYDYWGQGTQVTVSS VL: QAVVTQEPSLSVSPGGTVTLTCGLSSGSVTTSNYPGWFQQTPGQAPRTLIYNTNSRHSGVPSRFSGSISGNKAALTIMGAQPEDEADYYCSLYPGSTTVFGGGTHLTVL is ____.
Result: 4

Query: Fill blank: measured cell scattering score, HPAF-II, 3.000 nM of the binder chimeric llama-human IgG1 mAb 74C8 (antibody, V domains shown) VH: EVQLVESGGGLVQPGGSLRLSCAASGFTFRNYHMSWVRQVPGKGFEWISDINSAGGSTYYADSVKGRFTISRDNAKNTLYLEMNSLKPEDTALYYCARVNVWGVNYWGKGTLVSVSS VL: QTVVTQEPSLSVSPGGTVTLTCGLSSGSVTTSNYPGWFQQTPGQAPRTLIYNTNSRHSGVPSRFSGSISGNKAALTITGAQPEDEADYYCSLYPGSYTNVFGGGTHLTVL is ____.
Result: 4

Query: Fill blank: measured cell scattering score, HPAF-II, 3.000 nM of the binder chimeric llama-human IgG1 mAb 71G12 (antibody, V domains shown) VH: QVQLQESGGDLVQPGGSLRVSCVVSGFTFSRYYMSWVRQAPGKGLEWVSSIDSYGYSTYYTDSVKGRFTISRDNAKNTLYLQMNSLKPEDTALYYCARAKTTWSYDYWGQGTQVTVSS VL: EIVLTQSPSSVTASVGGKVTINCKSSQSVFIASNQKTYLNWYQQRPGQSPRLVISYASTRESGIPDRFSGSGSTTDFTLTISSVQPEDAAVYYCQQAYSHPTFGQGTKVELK is ____.
Result: 2

Query: Fill blank: measured cell scattering score, HPAF-II, 3.000 nM of the binder chimeric llama-human IgG1 mAb 72F8 (antibody, V domains shown) VH: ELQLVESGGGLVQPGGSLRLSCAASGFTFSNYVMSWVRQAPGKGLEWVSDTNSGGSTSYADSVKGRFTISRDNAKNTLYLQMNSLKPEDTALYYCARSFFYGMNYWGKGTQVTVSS VL: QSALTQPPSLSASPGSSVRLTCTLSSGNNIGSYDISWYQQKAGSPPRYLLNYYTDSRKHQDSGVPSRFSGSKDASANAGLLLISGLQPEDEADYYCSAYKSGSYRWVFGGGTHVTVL is ____.
Result: 2

Query: Fill blank: measured cell scattering score, HPAF-II, 3.000 nM of the binder chimeric llama-human IgG1 mAb 71D4 (antibody, V domains shown) VH: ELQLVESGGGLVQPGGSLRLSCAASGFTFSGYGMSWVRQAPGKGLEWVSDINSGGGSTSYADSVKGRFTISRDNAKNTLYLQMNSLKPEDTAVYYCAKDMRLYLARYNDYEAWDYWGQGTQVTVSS VL: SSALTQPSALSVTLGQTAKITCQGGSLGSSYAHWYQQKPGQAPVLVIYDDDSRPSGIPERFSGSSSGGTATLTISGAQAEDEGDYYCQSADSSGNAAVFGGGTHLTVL is ____.
Result: 2

Query: Fill blank: measured cell scattering score, HPAF-II, 3.000 nM of the binder chimeric llama-human IgG1 mAb 76H10 (antibody, V domains shown) VH: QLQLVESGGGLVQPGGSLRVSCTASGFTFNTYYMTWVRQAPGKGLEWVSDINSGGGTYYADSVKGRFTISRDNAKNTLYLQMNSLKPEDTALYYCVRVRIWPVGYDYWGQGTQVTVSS VL: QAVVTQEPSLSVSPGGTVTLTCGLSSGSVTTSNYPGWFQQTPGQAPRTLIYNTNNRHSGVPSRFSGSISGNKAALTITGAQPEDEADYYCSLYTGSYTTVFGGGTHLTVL is ____.
Result: 2

Query: Fill blank: measured cell scattering score, HPAF-II, 3.000 nM of the binder chimeric llama-human IgG1 mAb 71G2 (antibody, V domains shown) VH: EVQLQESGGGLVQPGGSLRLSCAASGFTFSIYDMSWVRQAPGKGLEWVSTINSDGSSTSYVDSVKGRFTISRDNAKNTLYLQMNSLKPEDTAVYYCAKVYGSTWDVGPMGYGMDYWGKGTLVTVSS VL: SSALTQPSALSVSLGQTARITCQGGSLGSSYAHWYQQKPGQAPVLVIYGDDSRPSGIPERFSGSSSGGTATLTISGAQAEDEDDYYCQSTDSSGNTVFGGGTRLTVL is ____.
Result: 4

Query: Fill blank: measured cell scattering score, HPAF-II, 3.000 nM of the binder chimeric llama-human IgG1 mAb 76G7 (antibody, V domains shown) VH: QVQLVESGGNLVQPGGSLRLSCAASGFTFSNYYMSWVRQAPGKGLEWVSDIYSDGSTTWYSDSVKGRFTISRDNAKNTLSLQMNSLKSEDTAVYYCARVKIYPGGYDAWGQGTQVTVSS VL: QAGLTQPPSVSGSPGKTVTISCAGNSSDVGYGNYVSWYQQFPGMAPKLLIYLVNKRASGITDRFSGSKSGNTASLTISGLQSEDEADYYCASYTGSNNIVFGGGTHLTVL is ____.
Result: 2

Query: Fill blank: measured cell scattering score, HPAF-II, 3.000 nM of the binder chimeric llama-human IgG1 mAb 71A3 (antibody, V domains shown) VH: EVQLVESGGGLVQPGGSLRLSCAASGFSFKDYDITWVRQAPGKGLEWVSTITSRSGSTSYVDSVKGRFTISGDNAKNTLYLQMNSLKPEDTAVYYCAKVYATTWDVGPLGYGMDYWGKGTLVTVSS VL: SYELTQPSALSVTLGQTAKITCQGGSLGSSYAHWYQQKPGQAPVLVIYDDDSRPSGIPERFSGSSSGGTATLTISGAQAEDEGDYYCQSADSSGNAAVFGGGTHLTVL is ____.
Result: 4
